MEASUREMENT_NOTES: oral PK
Assay type: in vivo
TEST_SETTINGS: in vivo, 50 mg/kg, free, read-out: C average (nM) free
So I've got a bunch of compounds here, and I need their average free concentration at 24 h values.

Q: What average free concentration at 24 h value was documented for this compound, COc1cc(OC)c2c(c1)O[C@@]1(c3ccc(Cl)cc3)[C@H](c3ccccc3)C[C@@H](O)[C@@]21O [Compound C-1, reference compound] ?
A: 4.6 nM

Q: Subsequent entry: COc1cc(OC)c2c(c1)O[C@@]1(c3ccc(C#N)cc3)[C@H](c3cccc(F)c3)C[C@@H](O)[C@@]21O (single isomer, unassigned)
A: 15.8 nM

Values from patent US20260216121A1
